# credit: the nanobody polyreactivity screen of Harvey et al. (2022)

Experiment: yeast display, Sf9 membrane polyspecificity reagent, FACS + sequencing; frameworks hold sequencing errors
readout_name: polyreactivity (PSR sort gate)

Answered cases to consult:
>  <sequence_code>
QVQLVESGGGLVQAGGSLRLSCAASGRTFLPYAMGWYRQAPGKERELVAAITYSGGRTYYADSVKGRFTISRDNAKNTVYLQMNSLKPEDTAVYYCAASLWFGGGYWGLGTQVTVSS

>  <polyreactivity (PSR sort gate)>
high polyreactivity

$$$$
>  <sequence_code>
QDQLVESGGGLVQAGGSLSLSCAASGRIYRYYAMGWSRQAPGKERELVADISSGDSTYYADSVKGRFTMSRDNAKNTVYLQMNSLKPEDTAVYNCNADVYSWVSGKEGDYWGQGTQVTVSS

>  <polyreactivity (PSR sort gate)>
low polyreactivity

$$$$
>  <sequence_code>
QVQLVESGGGIVQAGGSLRLSCAASGSIFHYYAMGWYRQAPGKESELVAAISWSGGRTNYADSVKGRFTISRDNAKNTVYLQMNSLKPEDTAVYYCAAAERSFSGGGKIGKYYYWGQGTQVTVSS

>  <polyreactivity (PSR sort gate)>
high polyreactivity

$$$$
>  <sequence_code>
QVQLVESGGGLVQAGGSLRLSCAASGSTLYTYDMGWYRQAPGKERELVASISGSDGSTYYADSVKGRFTISRDNAKNTVYLQMNSLKPEDTAVYYCAVDSYQTGVYFYYVYWDFDLGYWGQGTQVTVSS

>  <polyreactivity (PSR sort gate)>
low polyreactivity

$$$$

Please examine the following record next.
(Q) Please report the recorded polyreactivity (PSR sort gate) for QVQLEESGGGLVQAGGSLRLSCPASGSTFGKNAMGWSRQAPGKERELVASITWRGGCTYYADSVKGRITISRDNAKNTVFLQMNSLKPEDTAVYYCATNWHIHIGSYKYYYWGQGTQVTVSS .
(A) low polyreactivity

###

Assay: yeast display, Sf9 membrane polyspecificity reagent, FACS + sequencing; frameworks hold sequencing errors
readout_name: polyreactivity (PSR sort gate)

>  <sequence_code>
QVQLVESGGGLVQAGGSLRLSCAPSGFIFNRNTMGWYRQAPGKERELVAAISFRGTSTYYADSVKGRFTISRDNAKNTVYLQMNSLKPEDTAVYYCNRARILVWSKYGYWGQGTQVNVSS

>  <readout_name>
polyreactivity (PSR sort gate)

>  <reported_measurement>
high polyreactivity

$$$$
>  <sequence_code>
QVQLVESGGGIVQAGGSLRLICAASGSNFNRYAMGWYRQAPGKERQLVARITNRSGNTYYADSVKGRFTISRDIAKNTVYLQMTSLKPEDTAVYYCAATKSLGRYIMEYWGLGTQVTVSS

>  <readout_name>
polyreactivity (PSR sort gate)

>  <reported_measurement>
low polyreactivity

$$$$
>  <sequence_code>
QVQLVESGGGLVQAGGSLRLSCAASGSIFYHYVMGWYRQAPGKERELVAAISSSGRTYYADSVKGRFTISRDNAKNTVYLQMNSLKPEDTAVYYCAAYQKYYLRKYEYWGQGTQVTVSS

>  <readout_name>
polyreactivity (PSR sort gate)

>  <reported_measurement>
low polyreactivity

$$$$
>  <sequence_code>
QVQLVESGGGVVQAGGSLRLSCAASARTFYRNAMGWYRQAPGKERELVAAITGSGGSTYYADSVKGRFTISRDNAKNTVYLQMNSLKPEDTAVSYCAAGTRIYNSWIRFDYWGQGTQVTVSS

>  <readout_name>
polyreactivity (PSR sort gate)

>  <reported_measurement>
high polyreactivity

$$$$

Please examine the following record next.
(Q) Please report the recorded polyreactivity (PSR sort gate) for QVQLVESGGGLVQAGGSLRLSCAASGRIFGYNAMGWYRQAPGKERELVAAISDDGSTNYADSVKGRFTISRDNAKNTVYLQMNSLKPEDTAVYYCNADITFYTWGWYYIRYEYWGQGTQVTVSS .
(A) low polyreactivity
